Each entry below carries its recorded Binding (%).
# Assay System: ATP5B protein (UniProt P06576)
# Sequence (P06576 48-529 limits assumed): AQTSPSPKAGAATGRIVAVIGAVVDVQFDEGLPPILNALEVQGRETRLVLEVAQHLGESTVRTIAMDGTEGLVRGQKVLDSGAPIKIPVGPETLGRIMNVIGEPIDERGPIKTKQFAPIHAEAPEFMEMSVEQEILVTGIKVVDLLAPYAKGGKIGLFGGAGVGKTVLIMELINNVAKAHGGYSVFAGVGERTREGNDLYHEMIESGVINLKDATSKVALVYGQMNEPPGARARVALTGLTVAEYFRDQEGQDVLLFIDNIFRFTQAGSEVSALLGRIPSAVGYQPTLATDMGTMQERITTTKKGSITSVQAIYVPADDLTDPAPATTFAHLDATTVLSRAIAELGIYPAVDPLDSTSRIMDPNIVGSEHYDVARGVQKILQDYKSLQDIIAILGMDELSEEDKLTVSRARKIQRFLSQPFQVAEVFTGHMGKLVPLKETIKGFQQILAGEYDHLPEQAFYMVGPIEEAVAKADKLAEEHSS
# Method Notes: SPR, ATP5B amine-coupled to CM5 chip, peptide in flow at 50 µl/min; binding relative to SEQ ID NO: 12

Consider the worked cases shown below.
> print(dat)
                                     binder  experimental.endpoint  test.result
1  VDRGAGAIREAGGAFGKREQAEEERYFR [Shortened substance (8-35) amino acid Ala substituted (14)]            Binding (%)        98.8%
2  VARGAGSIREAGGAFGKREQAEEERYFR [Shortened substance (8-35) amino acid Ala substituted (9)]            Binding (%)        91.6%
3  VDRGAASIREAGGAFGKREQAEEERYFR [Shortened substance (8-35) amino acid Ala substituted (13)]            Binding (%)        98.5%
4  VDRGAGSIREAAGAFGKREQAEEERYFR [Shortened substance (8-35) amino acid Ala substituted (19)]            Binding (%)        89.6%
5  VDRGAGSIREAGGAFGKREQAEEERYFA [Shortened substance (8-35) amino acid Ala substituted (35)]            Binding (%)         110%

Measured Binding (%), VDRGAGSIREAGGAAGKREQAEEERYFR [Shortened substance (8-35) amino acid Ala substituted (22)] : 94%

Measured Binding (%), VDRGAGSIAEAGGAFGKREQAEEERYFR [Shortened substance (8-35) amino acid Ala substituted (16)] : 97%

Measured Binding (%), VDRGAGSIREAGGAFGAREQAEEERYFR [Shortened substance (8-35) amino acid Ala substituted (24)] : 100%

Measured Binding (%), VDRGAGSIREAGGAFGKREQAAEERYFR [Shortened substance (8-35) amino acid Ala substituted (29)] : 96.7%

Measured Binding (%), VDRGAGSIREAGGAFGKREAAEEERYFR [Shortened substance (8-35) amino acid Ala substituted (27)] : 89.5%

Measured Binding (%), ADRGAGSIREAGGAFGKREQAEEERYFR [Shortened substance (8-35) amino acid Ala substituted (8)] : 101%

Measured Binding (%), VDRAAGSIREAGGAFGKREQAEEERYFR [Shortened substance (8-35) amino acid Ala substituted (11)] : 100%
